- Tested on: Fibroblast
- experiment-notes: Multiplex assay against human fibroblast
- Assay type: toxicity, cell-based
- measurement-setup: 24 h, 10 µM, compound concentration 10 uM, replicate 1
I'd be grateful if you could share measured Population Hoechst High Intensity Objects (%) for these entries.
The answer is to be given in %; state only the numeric part.

Query :: Can you look up the measured Population Hoechst High Intensity Objects (%) of `CNC(=O)Nc1ccc2c(c1)[C@@]1(CC2)OC(=O)N(CC(=O)N(Cc2ccc(F)cc2)[C@@H](C)C(F)(F)F)C1=O` for me?
Result :: 14

Query :: // next record `Cl.O=C(O)c1cc(-c2ccc(C3CCNCC3)cc2)c2ccc(-c3ccc(C(F)(F)F)cc3)cc2c1`
Result :: 15

Query :: // query: `CC(C)c1noc(N2CCC(COc3ccc(-c4ccc(S(C)(=O)=O)cc4)nc3)CC2)n1`
Result :: 10

Query :: Proceed to `CC(C)Oc1ccccc1C(=O)Nc1ccccc1C(=O)Nc1cccc(S(=O)(=O)C(F)(F)F)c1`
Result :: 12

Query :: Please do the same for COc1cc2ncn(-c3cc(OCc4ccccc4C(F)(F)F)c(C(N)=O)s3)c2cc1OC [GW843682X] as well.
Result :: 21

Query :: Thanks! And `O=c1cc(N2CCOCC2)oc2c(-c3cccc4c3sc3ccccc34)cccc12` ?
Result :: 14

Query :: Request: `COc1cc(Nc2nccc(-c3cnn4nc(OC)ccc34)n2)cc(C(F)(F)F)c1`
Result :: 54

Query :: # iterate: `Cc1nc(N2CC[C@H](O)C2)ncc1-c1cc(C(F)(F)F)cc2[nH]ncc12`
Result :: 15
